Biological target: UniProt P50053
Sequence (P50053 whole entry): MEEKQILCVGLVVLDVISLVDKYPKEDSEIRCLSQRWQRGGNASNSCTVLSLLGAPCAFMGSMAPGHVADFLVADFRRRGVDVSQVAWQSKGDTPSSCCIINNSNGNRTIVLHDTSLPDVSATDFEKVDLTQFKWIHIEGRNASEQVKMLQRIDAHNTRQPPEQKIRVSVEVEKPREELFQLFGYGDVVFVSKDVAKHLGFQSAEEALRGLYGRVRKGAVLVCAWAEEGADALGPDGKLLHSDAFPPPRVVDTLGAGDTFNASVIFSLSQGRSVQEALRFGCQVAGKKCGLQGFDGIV
Experiment: KHK Biochemical Assay (IC50), ADP-Glo, KHK-C
Details: average of at least two separate assays
pIC50: −log10 of the molar value.
readout.label: pIC50

# count of solved cases: 4
- compound: "C[C@@H]1N(c2nc(-c3ccc(C4(N)COC4)cc3)c3c(n2)C(F)(F)CC3)CC1(F)F [Example 470]"
  readout.label: "pIC50"
  measured.number: 8.72
- compound: "C[C@H]1[C@H](O)CN1c1nc(-c2ccc3c(c2)OCCNC32COC2)c2c(n1)C(F)(F)CC2 [Example 521]"
  readout.label: "pIC50"
  measured.number: 8.01
- compound: "C[C@H]1CCN1c1nc2c(c(-c3ccc4c(=O)[nH][nH]c(=O)c4c3)n1)CCC2 [Example 429]"
  readout.label: "pIC50"
  measured.number: 7.38
- compound: "C[C@H]1[C@H](O)CN1c1nc(-c2ccc3c(c2)CC[C@H]3NS(C)(=O)=O)c2c(n1)C(F)(F)CC2 [Example 473]"
  readout.label: "pIC50"
  measured.number: 8.12

I: C[C@H]1CCN1c1nc2c(c(-c3ccc4c(=O)[nH]ncc4c3)n1)CCC2 [Example 427]
II: C[C@H]1CCN1c1nc2c(c(-c3cccc(S(=N)(=O)C(F)F)c3)n1)CCC2 (some centres unmarked) [Example 602]
Task: When their pIC50 values are compared, which is larger, I or II ? Let me know the label of the one you choose.
Output: I
(I: 7.52, II: 7.22)

P: C[C@H]1[C@H](O)CN1c1nc2c(c(-c3cccc(CNS(=O)(=O)C4CC4)c3)n1)CCC2 [Example 610]
Q: C[C@H]1CCN1c1nc(-c2ccc3c(c2)OCCC3NS(C)(=O)=O)c2c(n1)C(F)(F)CC2 (some centres unmarked) [Example 759]
R: C[C@H]1[C@H](O)CN1c1nc(-c2cccc([S@](C)(=N)=O)c2)c2c(n1)C(F)(F)CC2 (single isomer, unassigned) [Example 493]
S: C[C@H]1CCN1c1nc(-c2cc3c(c(S(N)(=O)=O)c2)OCC3)c2c(n1)C(F)(F)CC2 [Example 742]
T: COc1c(F)cc(-c2nc(N3C[C@@H](O)[C@@H]3C)nc3c2CCC3(F)F)cc1[S@@](C)(=N)=O (single isomer, unassigned) [Example 536]
Task: Write the entries in order, lowest recorded pIC50 first. # the answer lists labels in the order requested
Output: P, R, T, Q, S
(P: 7.09, R: 7.93, T: 8.21, Q: 8.64, S: 8.89)
